- Target System: NDM-1 (Klebsiella pneumoniae, UniProt C7C422)
- Sequence (C7C422 whole entry, looked up, species assumed): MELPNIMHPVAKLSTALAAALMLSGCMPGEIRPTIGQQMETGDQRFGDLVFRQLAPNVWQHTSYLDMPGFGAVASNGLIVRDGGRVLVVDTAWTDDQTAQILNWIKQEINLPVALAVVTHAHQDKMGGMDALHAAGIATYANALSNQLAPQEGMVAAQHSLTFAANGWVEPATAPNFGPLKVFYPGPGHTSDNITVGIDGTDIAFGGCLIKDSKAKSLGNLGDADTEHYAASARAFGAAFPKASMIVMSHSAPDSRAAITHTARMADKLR
- Experimental Protocol: biochemical
- Assay type: biochemical
- Reported Conditions: NDM-1 enzyme, CCF2-FA substrate; read-out: NDM-1 IC50
Documented pIC50 across a set of compounds
Friendly reminder that pIC50 comes from taking -log10 of the concentration in mol/L.

> print(dat)
                                   compound  reported.result
1  Nc1cc(-c2cccc(S(N)(=O)=O)c2-c2nn[nH]n2)cnc1N             7.70
2  CC1(O)CCCN(c2ccc(C(F)(F)F)c(S(N)(=O)=O)c2-c2nnn[nH]2)C1 (stereo not drawn)             8.16
3  CC(CO)(CO)c1ccc(-c2ccc(C(F)(F)F)c(S(N)(=O)=O)c2-c2nnn[nH]2)cc1             9.12
4  Nc1nc2cncc(-c3ccc(C(F)(F)F)c(S(N)(=O)=O)c3-c3nnn[nH]3)c2[nH]1             8.77
5  NS(=O)(=O)c1c(C(F)(F)F)ccc(-c2ccc(OC3CNC3)cc2)c1-c1nnn[nH]1             8.52

Consider now this further compound.
Data request: Consider the compound NCCCCCNc1nc2c(-c3cccc(S(N)(=O)=O)c3-c3nnn[nH]3)cccc2s1 and give its measured pIC50.
Data returned: 8.87
